Quick record of pIC50 values for UniProt Q72547.
pIC50: −log10 of the molar value.

compound_structure_string: Cc1cc(C#N)cc(C)c1Oc1nc(NC2CCN(c3ccc(NS(C)(=O)=O)cc3)CC2)ncc1C(N)=O
pIC50: 6.70

compound_structure_string: Cc1cc(C#N)cc(C)c1Oc1nc(NC2CCN(Cc3ccc(B(O)O)cc3)CC2)ncc1C(N)=O
pIC50: 5.98

compound_structure_string: Cc1cc(C#N)cc(C)c1Oc1nc(NC2CCN(Cc3ccc(C(N)=O)cc3)CC2)ncc1C(N)=O
pIC50: 6.80

compound_structure_string: Cc1cc(C#N)cc(C)c1Oc1nc(Nc2ccc(C#N)c(F)c2)ncc1C(N)=O
pIC50: 6.77

compound_structure_string: Cc1cc(C#N)cc(C)c1Oc1nc(NC2CCN(Cc3ccc(S(C)(=O)=O)cc3)CC2)ncc1C(N)=O
pIC50: 6.91

compound_structure_string: Cc1cc(C#N)cc(C)c1Oc1nc(NC2CCN(c3ccc(NS(=O)(=O)C4CC4)cc3)CC2)ncc1C(N)=O
pIC50: 7.42

compound_structure_string: Cc1cc(C#N)cc(C)c1Oc1nc(NC2CCN(c3ccc(N)cc3)CC2)ncc1C(N)=O
pIC50: 6.62

---

measurement_protocol: Fold resistance, ratio of EC50 for antiviral activity against NNRTI-resistant HIV-1 harboring E138K mutant infected in human MT4 cells assessed as virus-induced cytopathicity to EC50 for antiviral activity against HIV-1 IIIB infected in human MT4 cells assessed as reduction in virus induced cytopathic effect
Assay type: functional
One threshold, 5, splits the recorded Ratio EC50 values: lower ones are Criterion met, equal or higher ones are Criterion not met.

compound_structure_string: Cc1cc(C#N)cc(C)c1Oc1nc(NC2CCN(c3ccc(NS(=O)(=O)C4CC4)cc3)CC2)ncc1C(N)=O
class_label: Criterion not met

compound_structure_string: Cc1cc(C#N)cc(C)c1Oc1nc(NC2CCN(c3ccc(NS(N)(=O)=O)cc3)CC2)ncc1C(N)=O
class_label: Criterion met

compound_structure_string: Cc1cc(C#N)cc(C)c1Oc1nc(NC2CCN(c3ccc(NS(C)(=O)=O)cc3)CC2)ncc1C(N)=O
class_label: Criterion not met

compound_structure_string: Cc1cc(C#N)cc(C)c1Oc1nc(Nc2ccc(C#N)c(F)c2)ncc1C(N)=O
class_label: Criterion met

---

measurement_protocol: Selectivity index, ratio of CC50 for cytotoxicity against human MT4 cells assessed as reduction in cell viability to EC50 for antiviral activity against HIV-1 IIIB infected in human MT4 cells assessed as reduction in virus induced cytopathic effect
Format: toxicity, cell-based
measurement_conditions: read-out: Ratio CC50/EC50
One threshold, 3000, splits the recorded selectivity ratio values: lower ones are YES, equal or higher ones are NO.

compound_structure_string: Cc1cc(C#N)cc(C)c1Oc1nc(NC2CCN(Cc3ccc(C(N)=O)cc3)CC2)ncc1C(N)=O
class_label: NO
//
compound_structure_string: Cc1cc(C#N)cc(C)c1Oc1nc(NC2CCN(Cc3ccc(S(C)(=O)=O)cc3)CC2)ncc1C(N)=O
class_label: NO
//
compound_structure_string: Cc1cc(C#N)cc(C)c1Oc1nc(Nc2ccc(CN3CCN(S(N)(=O)=O)CC3)cc2)ncc1C(N)=O
class_label: YES
//
compound_structure_string: Cc1cc(C#N)cc(C)c1Oc1nc(NC2CCN(c3ccc(NS(N)(=O)=O)cc3)CC2)ncc1C(N)=O
class_label: NO
//
compound_structure_string: Cc1cc(C#N)cc(C)c1Oc1nc(NC2CCN(c3ccc(NS(=O)(=O)C4CC4)cc3)CC2)ncc1C(N)=O
class_label: NO
//
compound_structure_string: Cc1cc(C#N)cc(C)c1Oc1nc(NC2CCN(c3ccc(NS(=O)(=O)N(C)C)cc3)CC2)ncc1C(N)=O
class_label: NO
//
compound_structure_string: Cc1cc(C#N)cc(C)c1Oc1nc(NC2CCN(c3ccc(N)cc3)CC2)ncc1C(N)=O
class_label: NO
//
compound_structure_string: Cc1cc(C#N)cc(C)c1Oc1nc(NC2CCN(c3cccc(C#N)c3)CC2)ncc1C(N)=O
class_label: YES
//
compound_structure_string: Cc1cc(C#N)cc(C)c1Oc1nc(NC2CCN(Cc3ccc(S(N)(=O)=O)cc3)CC2)ncc1C(N)=O
class_label: NO
//
compound_structure_string: Cc1cc(C#N)cc(C)c1Oc1nc(NC2CCN(Cc3ccc(B(O)O)cc3)CC2)ncc1C(N)=O
class_label: NO
//
compound_structure_string: Cc1cc(C#N)cc(C)c1Oc1nc(Nc2ccc(C#N)nc2)ncc1C(N)=O
class_label: YES
//
compound_structure_string: Cc1cc(C#N)cc(C)c1Oc1nc(NC2CCN(c3ccc(NS(C)(=O)=O)cc3)CC2)ncc1C(N)=O
class_label: NO
//
compound_structure_string: Cc1cc(C#N)cc(C)c1Oc1nc(Nc2ccc(C#N)c(F)c2)ncc1C(N)=O
class_label: NO
//
compound_structure_string: Cc1cc(C#N)cc(C)c1Oc1nc(Nc2ccc(C#N)cc2)ncc1C(N)=O
class_label: YES

---

Here the recorded selectivity ratio is given for each entry.
measurement_protocol: Selectivity index, ratio of CC50 for cytotoxicity against human MT4 cells assessed as reduction in cell viability to EC50 for antiviral activity against NNRTI-resistant HIV-1 harboring Y188L mutant infected in human MT4 cells
Format: toxicity, cell-based
measurement_conditions: read-out: Ratio CC50/EC50

compound_structure_string: Cc1cc(C#N)cc(C)c1Oc1nc(NC2CCN(c3ccc(NS(=O)(=O)N(C)C)cc3)CC2)ncc1C(N)=O
rel: =
selectivity ratio: 6350
//
compound_structure_string: Cc1cc(C#N)cc(C)c1Oc1nc(NC2CCN(Cc3ccc(B(O)O)cc3)CC2)ncc1C(N)=O
rel: >
selectivity ratio: 1190
//
compound_structure_string: Cc1cc(C#N)cc(C)c1Oc1nc(Nc2ccc(C#N)cc2)ncc1C(N)=O
rel: =
selectivity ratio: 167
//
compound_structure_string: Cc1cc(C#N)cc(C)c1Oc1nc(NC2CCN(Cc3ccc(S(C)(=O)=O)cc3)CC2)ncc1C(N)=O
rel: >
selectivity ratio: 3400
//
compound_structure_string: Cc1cc(C#N)cc(C)c1Oc1nc(NC2CCN(Cc3ccc(C(N)=O)cc3)CC2)ncc1C(N)=O
rel: >
selectivity ratio: 324
//
compound_structure_string: Cc1cc(C#N)cc(C)c1Oc1nc(NC2CCN(c3ccc(N)cc3)CC2)ncc1C(N)=O
rel: =
selectivity ratio: 718
//
compound_structure_string: Cc1cc(C#N)cc(C)c1Oc1nc(NC2CCN(c3ccc(NS(N)(=O)=O)cc3)CC2)ncc1C(N)=O
rel: =
selectivity ratio: 1480
//
compound_structure_string: Cc1cc(C#N)cc(C)c1Oc1nc(Nc2ccc(C#N)c(F)c2)ncc1C(N)=O
rel: =
selectivity ratio: 345
//
compound_structure_string: Cc1cc(C#N)cc(C)c1Oc1nc(NC2CCN(c3ccc(NS(C)(=O)=O)cc3)CC2)ncc1C(N)=O
rel: >
selectivity ratio: 9940
//
compound_structure_string: Cc1cc(C#N)cc(C)c1Oc1nc(NC2CCN(Cc3ccc(S(N)(=O)=O)cc3)CC2)ncc1C(N)=O
rel: =
selectivity ratio: 847
//
compound_structure_string: Cc1cc(C#N)cc(C)c1Oc1nc(NC2CCN(c3ccc(NS(=O)(=O)C4CC4)cc3)CC2)ncc1C(N)=O
rel: =
selectivity ratio: 6000

---

Tested on: Human immunodeficiency virus 1
measurement_protocol: Antiviral activity against NNRTI-resistant HIV-1 harboring E138K mutant infected in human MT4 cells assessed as virus-induced cytopathicity incubated for 5 days by MTT assay
Type: functional, organism-based
measurement_conditions: Human immunodeficiency virus 1, MT4, 120 h
pEC50: −log10 of the molar value.
I would appreciate it if you labelled entries condition met when pEC50 is 7 or higher, otherwise condition not met.

compound_structure_string: Cc1cc(C#N)cc(C)c1Oc1nc(NC2CCN(c3ccc(NS(C)(=O)=O)cc3)CC2)ncc1C(N)=O
class_label: condition not met
--
compound_structure_string: Cc1cc(C#N)cc(C)c1Oc1nc(Nc2ccc(C#N)cc2)nc(N)c1Br
class_label: condition met
--
compound_structure_string: Cc1cc(C#N)cc(C)c1Oc1nc(Nc2ccc(C#N)c(F)c2)ncc1C(N)=O
class_label: condition met
--
compound_structure_string: Cc1ccnc2c1NC(=O)c1cccnc1N2C1CC1
class_label: condition not met
--
compound_structure_string: Cc1cc(C#N)cc(C)c1Oc1nc(NC2CCN(Cc3ccc(B(O)O)cc3)CC2)ncc1C(N)=O
class_label: condition not met
--
compound_structure_string: Cc1cc(C#N)cc(C)c1Oc1nc(NC2CCN(Cc3ccc(C(N)=O)cc3)CC2)ncc1C(N)=O
class_label: condition not met
--
compound_structure_string: Cc1cc(C#N)cc(C)c1Oc1nc(NC2CCN(c3ccc(NS(=O)(=O)C4CC4)cc3)CC2)ncc1C(N)=O
class_label: condition not met

---

measurement_protocol: Fold resistance, ratio of EC50 for antiviral activity against NNRTI-resistant HIV-1 harboring E138K mutant infected in human MT4 cells assessed as virus-induced cytopathicity to EC50 for antiviral activity against HIV-1 IIIB infected in human MT4 cells assessed as reduction in virus induced cytopathic effect
Type: functional
Here the recorded Ratio EC50 is given for each entry.

compound_structure_string: Cc1cc(C#N)cc(C)c1Oc1nc(NC2CCN(Cc3ccc(B(O)O)cc3)CC2)ncc1C(N)=O
Ratio EC50: 4
//
compound_structure_string: Cc1cc(C#N)cc(C)c1Oc1nc(NC2CCN(Cc3ccc(S(C)(=O)=O)cc3)CC2)ncc1C(N)=O
Ratio EC50: 26.2
//
compound_structure_string: Cc1cc(C#N)cc(C)c1Oc1nc(Nc2ccc(C#N)cc2)ncc1C(N)=O
Ratio EC50: 6.2
//
compound_structure_string: Cc1cc(C#N)cc(C)c1Oc1nc(NC2CCN(c3ccc(NS(=O)(=O)N(C)C)cc3)CC2)ncc1C(N)=O
Ratio EC50: 3.9
//
compound_structure_string: Cc1cc(C#N)cc(C)c1Oc1nc(NC2CCN(Cc3ccc(C(N)=O)cc3)CC2)ncc1C(N)=O
Ratio EC50: 8.4
//
compound_structure_string: Cc1cc(C#N)cc(C)c1Oc1nc(NC2CCN(Cc3ccc(S(N)(=O)=O)cc3)CC2)ncc1C(N)=O
Ratio EC50: 6.3
